Where do the numbers come from? From patent US12606543B2.

# Procedure details: Pharmacokinetic studies in rat (i.v.)
# Type: in vivo
# Study conditions: male, Sprague-Dawley, plasma, iv, 1.19 mg/kg, rat plasma, i.v. 1.19 mg/kg, rat R01, estimated from 2 points only, read-out: Apparent t1/2, R01 (converted)
Property measured: half-life (min)
Answers are plain numbers, in min.

Fill blank: measured half-life of the compound CSc1ccc2[nH]cc(C[C@H]3CCCN3C)c2c1 [(R) I-1] is ____.
58.5

---

Can you tell me concentration at 1 h for the items I'm about to list?
# Procedure details: Pharmacokinetic studies in rat (i.v.)
# Format: in vivo
# Study conditions: male, Sprague-Dawley, plasma, intravenous, dose per Dose column (1.32-2.09 mg/kg), 1 h, mean of 3 rats, read-out: Plasma concentration, Mean ± SD
Give bare numbers, in ng/mL.

| Molecule | Unit descriptor | concentration at 1 h |
| --- | --- | --- |
| COCCN1CCC[C@@H]1Cc1c[nH]c2ccc(OC)cc12 [(R) I-98] | ng/mL | 113 |
| [2H]C([2H])(c1c[nH]c2ccc(OCCCCCN3C(=O)c4ccccc4C3=O)cc12)[C@H]1CCCN1C([2H])([2H])[2H] [(R) I-245] | ng/mL | 130 |
| [2H]C([2H])(c1c[nH]c2ccc(OCCCCN3C(=O)c4ccccc4C3=O)cc12)[C@H]1CCCN1C([2H])([2H])[2H] [(R) I-244] | ng/mL | 130 |

In the following, a different molecule is considered.
Entry [2H]C([2H])(c1c[nH]c2ccc(OCCCCCN3C(=O)C4CCCCC4C3=O)cc12)[C@H]1CCCN1C([2H])([2H])[2H] (mixture of isomers) [Rac (R) I-248] : reported concentration at 1 h = ?
144

---

# Study target: human 5-HT1A receptor (Homo sapiens)
# Construct: expressed in transfected cells; host or cells: CHO-K1
# Sequence (P08908 1-422): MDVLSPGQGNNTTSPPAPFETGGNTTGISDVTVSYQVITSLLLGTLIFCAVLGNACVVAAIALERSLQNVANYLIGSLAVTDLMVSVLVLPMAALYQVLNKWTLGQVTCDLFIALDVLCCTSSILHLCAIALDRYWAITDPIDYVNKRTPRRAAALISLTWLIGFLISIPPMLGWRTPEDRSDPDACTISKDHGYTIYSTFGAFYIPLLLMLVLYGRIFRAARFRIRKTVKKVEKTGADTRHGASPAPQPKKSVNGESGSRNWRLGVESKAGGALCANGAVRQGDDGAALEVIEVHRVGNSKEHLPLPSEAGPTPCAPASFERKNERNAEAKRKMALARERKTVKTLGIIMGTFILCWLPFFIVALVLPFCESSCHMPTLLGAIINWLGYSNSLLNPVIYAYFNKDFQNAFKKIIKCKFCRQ
# Procedure details: Human 5-HT1A cAMP assay
# Assay type: cell-based
# Study conditions: cAMP assay, CHO-K1 cells; relative to maximum response of serotonin
Provide the reported Emax (% of serotonin) of each item.

| Compound | Test value |
| --- | --- |
| CN(C)CCc1c[nH]c2ccccc12 | 87.1 % of serotonin |
| COCCN1CCC[C@@H]1Cc1c[nH]c2ccc(OC)cc12 [(R) I-98] | 96.42 % of serotonin |
| [2H]C([2H])(c1c[nH]c2ccc(OCCCCCN3C(=O)c4ccccc4C3=O)cc12)[C@H]1CCCN1C([2H])([2H])[2H] [(R) I-245] | 99.14 % of serotonin |
| CSc1ccc2[nH]cc(C[C@H]3CCCN3C)c2c1 [(R) I-1] | 99.41 % of serotonin |
| [2H]C([2H])(c1c[nH]c2ccc(OCCCCN3C(=O)c4ccccc4C3=O)cc12)[C@H]1CCCN1C([2H])([2H])[2H] [(R) I-244] | 99.01 % of serotonin |

Entry under review: [2H]C([2H])(c1c[nH]c2ccc(OCCCCCN3C(=O)[C@H]4CCCC[C@H]4C3=O)cc12)[C@H]1CCCN1C([2H])([2H])[2H] [Cis (R) I-248] . Reported Emax (% of serotonin)?
96.76 % of serotonin

---

# Procedure details: Liver microsomes stability, human
# Type: in vitro ADME
# Study conditions: human liver microsomes, With Cofactors, 30 min
Answer each item with its documented Remaining Percentage.
Answers are plain numbers, in %.

Would you please look over these solved cases?
| Molecule | Unit descriptor | Test value |
| --- | --- | --- |
| COCCN1CCC[C@@H]1Cc1c[nH]c2ccc(OC)cc12 [(R) I-98] | % | 100.00 |
| [2H]C([2H])(c1c[nH]c2ccc(OCCCCCN3C(=O)c4ccccc4C3=O)cc12)[C@H]1CCCN1C([2H])([2H])[2H] [(R) I-245] | % | 14.62 |

Report Remaining Percentage for every entry below.
1. [2H]C([2H])(c1c[nH]c2ccc(OCCCCCN3C(=O)C4CCCCC4C3=O)cc12)[C@H]1CCCN1C([2H])([2H])[2H] (mixture of isomers) [Rac (R) I-248]
2. O=C(O)Cc1ccccc1Nc1c(Cl)cccc1Cl
3. COc1ccc2[nH]cc(CCN(C)C)c2c1
4. [2H]C([2H])(c1c[nH]c2ccc(OCCCCN3C(=O)c4ccccc4C3=O)cc12)[C@H]1CCCN1C([2H])([2H])[2H] [(R) I-244]

0.04
5.01
19.24
3.10

---

# Procedure details: Pharmacokinetic studies in rat (i.v.)
# Type: in vivo
# Study conditions: male, Sprague-Dawley, plasma, intravenous, dose per Dose column (1.32-2.09 mg/kg), 4 h, second animal (R08/R05/R02/R11), read-out: Plasma concentration
Property measured: concentration at 4 h (ng/mL)
Give bare numbers, in ng/mL.

Consider the reported concentration at 4 h for these molecules:
| Molecule | Unit descriptor | Test value |
| --- | --- | --- |
| [2H]C([2H])(c1c[nH]c2ccc(OCCCCCN3C(=O)c4ccccc4C3=O)cc12)[C@H]1CCCN1C([2H])([2H])[2H] [(R) I-245] | ng/mL | 43.6 |
| [2H]C([2H])(c1c[nH]c2ccc(OCCCCCN3C(=O)C4CCCCC4C3=O)cc12)[C@H]1CCCN1C([2H])([2H])[2H] (mixture of isomers) [Rac (R) I-248] | ng/mL | 11.5 |
| COCCN1CCC[C@@H]1Cc1c[nH]c2ccc(OC)cc12 [(R) I-98] | ng/mL | 2.25 |

Would you mind telling me what concentration at 4 h value was observed for [2H]C([2H])(c1c[nH]c2ccc(OCCCCN3C(=O)c4ccccc4C3=O)cc12)[C@H]1CCCN1C([2H])([2H])[2H] [(R) I-244] ?
23.8

---

# Procedure details: Pharmacokinetic studies in rat (i.v.)
# Assay type: in vivo
# Study conditions: male, Sprague-Dawley, plasma, iv, 1.19 mg/kg, rat plasma, i.v., dose 1.19 mg/kg, 0.25 h, rat R02, read-out: Plasma concentration, R02
Property measured: concentration at 0.25 h (ng/mL)
Give bare numbers, in ng/mL.

Reported concentration at 0.25 h for CSc1ccc2[nH]cc(C[C@H]3CCCN3C)c2c1 [(R) I-1] : what is it?
112

---

# Study target: human 5-HT2C receptor (Homo sapiens)
# Sequence (P28335 33-458): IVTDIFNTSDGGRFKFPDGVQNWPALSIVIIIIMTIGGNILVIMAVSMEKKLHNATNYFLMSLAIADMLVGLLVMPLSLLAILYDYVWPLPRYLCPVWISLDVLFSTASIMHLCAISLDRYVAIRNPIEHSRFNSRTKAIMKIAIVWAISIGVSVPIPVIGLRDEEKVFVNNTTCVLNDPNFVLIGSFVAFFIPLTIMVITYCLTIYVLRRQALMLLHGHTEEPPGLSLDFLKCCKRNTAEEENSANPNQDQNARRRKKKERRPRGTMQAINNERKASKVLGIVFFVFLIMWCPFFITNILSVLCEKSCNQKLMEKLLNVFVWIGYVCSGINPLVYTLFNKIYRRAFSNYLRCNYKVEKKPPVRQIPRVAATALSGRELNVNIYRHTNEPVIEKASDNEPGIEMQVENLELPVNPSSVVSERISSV
# Procedure details: cell-based
# Study conditions: calcium mobilization FLIPR, stably transfected U2OS cells
# note: exactly 7 nM is not below, so it is no; use yes for EC50 strictly under it

Reference set, count: 3
| Compound | Category |
| --- | --- |
| CSc1ccc2[nH]cc(C[C@H]3CCCN3C)c2c1 [(R) I-1] | yes |
| [2H]C([2H])(c1c[nH]c2ccc(OCCCCCN3C(=O)c4ccccc4C3=O)cc12)[C@H]1CCCN1C([2H])([2H])[2H] [(R) I-245] | no |
| [2H]C([2H])(c1c[nH]c2ccc(OCCCCN3C(=O)c4ccccc4C3=O)cc12)[C@H]1CCCN1C([2H])([2H])[2H] [(R) I-244] | yes |

Please let me know if COCCN1CCC[C@@H]1Cc1c[nH]c2ccc(OC)cc12 [(R) I-98] shows EC50 below 7 nM.
yes

EC50 strictly < 7 nM for this compound? [2H]C([2H])(c1c[nH]c2ccc(OCCCCCN3C(=O)[C@H]4CCCC[C@H]4C3=O)cc12)[C@H]1CCCN1C([2H])([2H])[2H] [Cis (R) I-248]
no
